# System: NCI-H226 lung
# Experimental Details: NCI-60 one-dose screen, 48 h (100 = growth as untreated, 0 = no growth, -100 = all killed)
# Conditions: 10 µM unless noted
# Description: Growth inhibition of the NCI-H226 human Non-Small Cell Lung tumor cell line is measured as a screen for anti-cancer activity. Cells are grown in 96 well plates and exposed to the test compound for 48 hours. Compounds are tested at a single concentration, which is 10^-5 M for most compounds. The reported endpoint is percent growth (GI% or GIPRCNT), where numbers from 0 - 100% represent growth inhibition, and numbers from -100% - 0 represent cell death. […]
About 83,000 compounds went through this panel and 20% of them were active in at least one assay; those are over-represented in the sample as a whole.
Here the recorded growth is given for each entry.
Measured Property: growth (%)

{"Molecule": "CCCCCCCCCCCCNC(c1ccccc1)C(O)c1ccccc1 (stereo not given)", "Output Unit": "%", "Measured": 103}
{"Molecule": "Cc1ccc(S(=O)(=O)C(Cl)(Cl)Cl)cc1", "Output Unit": "%", "Measured": 80.4}
{"Molecule": "CNC12C3C4C1C1C2C3C41C(=O)N[C@H](C(=O)N(C)[C@H](C[C@@H](OC(C)=O)c1nc(C(=O)N[C@@H](Cc2ccccc2)C[C@H](C)C(=O)OC)cs1)C(C)C)C1CC1 (stereo not given in full)", "Output Unit": "%", "Measured": 11.2}
{"Molecule": "Cn1cc(C=O)c2nccnc21", "Output Unit": "%", "Measured": 120}
{"Molecule": "C[C@]12CC[C@H]3[C@@H](CC4SC(N)=NC45C/C(=N/NC(N)=O)CC[C@]35C)[C@@H]1CCC2=O (stereo not given in full)", "Output Unit": "%", "Measured": 108}

* * *

# Tested on: TK-10 renal
# Experimental Details: NCI-60 one-dose screen, 48 h (100 = growth as untreated, 0 = no growth, -100 = all killed)
# Conditions: 10 µM unless noted
Compounds without any hit were thinned out: in the full panel of roughly 83,000, 20% have a hit. Activity calls are given as the source filed them. The calls were made as follows: active = growth percent below 10; inactive = the rest.

{"Molecule": "CCOC(=O)[C@@H](C)C[C@H](Cc1ccccc1)NC(=O)c1nc([C@@H](C[C@H](C(C)C)N(C)C(=O)[C@@H](NC(=O)[C@H]2CCCCN2C)C(C)C)OC(C)=O)sc1CCOCc1ccccc1", "Tested System": "TK-10 renal", "growth": "-6.54% (active)"}
{"Molecule": "COC1=CC(=O)O[C@@H](/C=C/c2ccc3c(c2)OCO3)C1", "Tested System": "TK-10 renal", "growth": "102% (inactive)"}
{"Molecule": "CC[S][Hg][Cl]", "Tested System": "TK-10 renal", "growth": "115% (inactive)"}
{"Molecule": "O=NN1CCCc2cccc(O)c21", "Tested System": "TK-10 renal", "growth": "95.9% (inactive)"}
{"Molecule": "O=C(O)C(O)C(O)C1[O][Sb]([c]2ccc([N+](=O)[O-])cc2)[O]C1CO (stereo not given)", "Tested System": "TK-10 renal", "growth": "98.4% (inactive)"}

* * *

# Tested on: M14 melanoma
# Experimental Details: NCI-60 one-dose screen, 48 h (100 = growth as untreated, 0 = no growth, -100 = all killed)
# Conditions: 10 µM unless noted
Compounds without any hit were thinned out: in the full panel of roughly 83,000, 20% have a hit.
Here the recorded growth is given for each entry.

{"Compound": "CC(=O)O[C@H]1C(=O)[C@@]2(C)[C@H]([C@H](OC(=O)c3ccccc3)[C@]3(O)C[C@H](OC(=O)[C@H](OC(=O)OCC4COC(C)(C)O4)[C@@H](NC(=O)c4ccccc4)c4ccccc4)C(C)=C1C3(C)C)[C@]1(OC(C)=O)CO[C@@H]1C[C@@H]2O (stereo not given in full)", "Tested System": "M14 melanoma", "growth [%]": -14.7}
{"Compound": "CC(C)=CCc1c(O)c(C(=O)CC(C)C)c(O)c2c(-c3ccccc3)cc(=O)oc12", "Tested System": "M14 melanoma", "growth [%]": 61}
{"Compound": "COc1ccc(/C=C/c2cc(OC)c(OC)c(OC)c2)cc1NC(=O)/C=C/c1ccc(F)cc1", "Tested System": "M14 melanoma", "growth [%]": 13.4}
{"Compound": "CC[C@H](C)[C@H](NC(=O)[C@H]1CCCCN1C)C(=O)N(C)[C@H](CC(=O)c1nc(C(=O)N[C@@H](Cc2ccccc2)C[C@H](C)C(=O)O)cs1)C(C)C", "Tested System": "M14 melanoma", "growth [%]": 57.9}
{"Compound": "C=CCCCN=C=S", "Tested System": "M14 melanoma", "growth [%]": 60.9}

* * *

Here the recorded growth is given for each entry.
# Test system: RXF 393 renal
# Experimental Details: NCI-60 one-dose screen, 48 h (100 = growth as untreated, 0 = no growth, -100 = all killed)
# Conditions: 10 µM unless noted
About 83,000 compounds went through this panel and 20% of them were active in at least one assay; those are over-represented in the sample as a whole.
Measured Property: growth (%)

{"Compound": "CCOC(=O)[C@@H](C)C[C@H](Cc1ccccc1)NC(=O)c1csc([C@@H](C[C@H](C(C)C)N(C)C(=O)[C@@H](NC(=O)[C@H]2CCCCN2C)C(C)(C)C)OC(C)=O)n1", "Output Unit": "%", "Measured": 23.8}
{"Compound": "CN1C(=O)C(=Cc2cn(Cc3ccccc3)c3ccccc23)C(=O)N(C)C1=O", "Output Unit": "%", "Measured": 56.9}
{"Compound": "CC[C@H](C)[C@H](NC(=O)[C@H]1CCCCN1C)C(=O)N(C)[C@H](C[C@@H](OC(C)=O)c1nc(C(=O)N[C@@H](Cc2ccccc2)C[C@H](C)C(=O)OC)cs1)C(C)C", "Output Unit": "%", "Measured": 38.1}
{"Compound": "CC1=C(CNO)C2=C(C)C3(CC3)[C@@](C)(O)C(=O)C2=C1", "Output Unit": "%", "Measured": -70.3}
{"Compound": "O=C1CN=C(c2ccc(Cl)cc2)c2sccc2N1", "Output Unit": "%", "Measured": 100}
{"Compound": "Clc1ccc(N2COOC3(OOC2)C2CC4CC(C2)CC3C4)cc1", "Output Unit": "%", "Measured": 101}
{"Compound": "O=c1[nH]c2ccc([N+](=O)[O-])cc2c(=O)o1", "Output Unit": "%", "Measured": 101}
{"Compound": "CN1CCC(c2c[nH]c3ccccc23)C1 (stereo unspecified)", "Output Unit": "%", "Measured": 128}
{"Compound": "CCC(C)(C)[C@H](NC(=O)[C@H]1CCCCN1C)C(=O)N(C)[C@H](C[C@@H](OC(C)=O)c1nc(C(=O)N[C@@H](Cc2ccccc2)C[C@H](C)C(=O)O)cs1)C(C)C", "Output Unit": "%", "Measured": 38.4}
{"Compound": "C=C1C(=O)O[C@H]2[C@H]1CC/C(COC(=O)C(=O)c1cn(Cc3ccccc3)c3ccccc13)=C\\CC[C@@]1(C)O[C@@H]21", "Output Unit": "%", "Measured": -90.2}
{"Compound": "COc1ccc(/C=C\\c2cc(OC)c(OC)c(OC)c2)cc1NC(=O)/C=C/c1ccc(OC)c(OC)c1", "Output Unit": "%", "Measured": -15.1}
{"Compound": "COC(=O)[C@@H](C)C[C@H](Cc1ccccc1)NC(=O)c1csc([C@@H](C[C@H](C(C)C)N(C)C(=O)[C@H](C)NC(=O)[C@H]2CCCN2C)OC(C)=O)n1", "Output Unit": "%", "Measured": 21.8}
{"Compound": "N#C[S-].[Au+].c1ccc(CN2[CH-]N(Cc3ccccc3)C(c3ccccc3)=C2c2ccccc2)cc1", "Output Unit": "%", "Measured": 3.56}
{"Compound": "COC(=O)CC[C@H](Cc1ccccc1)NC(=O)c1csc([C@@H](C[C@H](C(C)C)N(C)C(=O)[C@@H](NC(=O)[C@H]2CCCCN2C)C(C)C)OC(C)=O)n1", "Output Unit": "%", "Measured": 69.6}
{"Compound": "COc1cc2c(=O)n(C3CCCCCCC3)c3c4cc[nH]c4ncc3c2cc1OC", "Output Unit": "%", "Measured": 19.1}
{"Compound": "C1CCC([PH+](C2CCCCC2)C2CCCCC2[PH+](C2CCCCC2)C2CCCCC2)CC1.O=C(C1[CH-]CCCC1)C1CCCC[N-]1.[Au] (stereo unspecified)", "Output Unit": "%", "Measured": -95.2}

* * *

# System: 786-0 renal
# Experimental Details: NCI-60 one-dose screen, 48 h (100 = growth as untreated, 0 = no growth, -100 = all killed)
# Conditions: 10 µM unless noted
This is part of a sample that, as a whole, favours compounds with a hit. Of some 83,000 tested, about 20% had one in any assay.
Assign class by growth: not lower than 10% means condition met; lower than 10% means condition not met.

{"Sample Smiles": "Clc1cccc(NCOOC2(OOCNc3cccc(Cl)c3)CCCCC2)c1", "Tested System": "786-0 renal", "Answer Label": "condition met"}
{"Sample Smiles": "COc1ccc(/C=C\\c2cc(OC)c(OC)c(OC)c2)cc1NC(=O)/C=C/c1ccc(OC)c(OC)c1", "Tested System": "786-0 renal", "Answer Label": "condition met"}
{"Sample Smiles": "COc1cc2c(cc1OCCCn1c(-c3ccccn3)nc3ccccc31)N=C[C@@H]1CCCN1C2=O", "Tested System": "786-0 renal", "Answer Label": "condition not met"}
{"Sample Smiles": "CNC(=O)Oc1ccc(C(C)(C)C)cc1OC(=O)NC", "Tested System": "786-0 renal", "Answer Label": "condition met"}

Value source: PubChem BioAssay (NCI)
